# test-name: Stability in rat plasma measured after 120 mins by LC-MS/MS analysis
# Assay type: ADME, cell-free
# condition-context: read-out: Stability

[
  {
    "record-smiles": "COc1ccccc1Nc1c(N[C@H]2CC[C@H](Oc3ccc(C#N)cc3)CC2)c(=O)c1=O",
    "remaining at 2 h": "93.1%"
  },
  {
    "record-smiles": "COc1ccccc1Nc1c(N[C@H]2CC[C@H](Oc3ccc([N+](=O)[O-])cc3)CC2)c(=O)c1=O",
    "remaining at 2 h": "96.2%"
  }
]

* * *

# test-name: Downregulation of SREBP-1c mRNA expression in human HepG2 cells at 10 uM pretreated with compound for 30 mins followed by T0901317 addition and measured after 12 hrs by RT-qPCR analysis relative to control
# Format: functional
# condition-context: time 12.5 hrs
property-name: Activity

[
  {
    "record-smiles": "COC(=O)c1ccc(Nc2c(N[C@H]3CC[C@H](Oc4ccc([N+](=O)[O-])cc4)CC3)c(=O)c2=O)cc1",
    "value": "26.7%"
  },
  {
    "record-smiles": "COc1ccccc1Nc1c(N[C@H]2CC[C@H](Oc3ccc(S(C)(=O)=O)cc3)CC2)c(=O)c1=O",
    "value": "34.4%"
  },
  {
    "record-smiles": "O=C(Nc1ccc(Br)cc1)Nc1cccnc1",
    "value": "56.6%"
  },
  {
    "record-smiles": "CC(C)(C)c1ccc(Nc2c(N[C@H]3CC[C@H](Oc4ccc(S(C)(=O)=O)cc4)CC3)c(=O)c2=O)cc1",
    "value": "68.5%"
  },
  {
    "record-smiles": "CS(=O)(=O)c1ccc(O[C@H]2CC[C@H](Nc3c(Nc4ccc(Cl)cc4)c(=O)c3=O)CC2)cc1",
    "value": "47.9%"
  },
  {
    "record-smiles": "O=c1c(Nc2ccc(F)cc2)c(N[C@H]2CC[C@H](Oc3ccc(C(F)(F)F)cc3)CC2)c1=O",
    "value": "59.3%"
  },
  {
    "record-smiles": "COc1ccc(Nc2c(N[C@H]3CC[C@H](Oc4ccc(S(C)(=O)=O)cc4)CC3)c(=O)c2=O)cc1",
    "value": "34.2%"
  },
  {
    "record-smiles": "COc1cccc(Nc2c(N[C@H]3CC[C@H](Oc4ccc([N+](=O)[O-])cc4)CC3)c(=O)c2=O)c1",
    "value": "64.3%"
  }
]
